- test_description: growth suppression of beta-catenin knockout HCT116, pilot screen, human colon tumor cells (AID 823);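 further: 0% = wells killed by 20 µM Hyamine and 100% = untreated DMSO cell wells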
- study_conditions: CellTiter-Glo, 60 h, at 10 µM, hits give low values
Results filed as inconclusive are left out.
Each entry below carries its reported viability.
Only the number, expressed in %, is required.

Would you please look over these solved cases?
{"compound": "O=C(Nc1nnc(C2CC2)o1)c1ccc(S(=O)(=O)N2CCCc3ccccc32)cc1", "val": 14.3}
{"compound": "COc1ccc(S(=O)(=O)Cc2ccc(C(=O)N3CCN(c4cccc(C)c4C)CC3)o2)cc1", "val": 13}
{"compound": "CCOC(=O)c1c2n(c3c(NCc4ccccc4)ncnc13)CCCC2", "val": 83.6}
{"compound": "NC(=O)C1CCN(C(=O)C2CCN(S(=O)(=O)c3ccccc3)CC2)CC1", "val": 102}
{"compound": "CCOC(=O)/C=c1\\sc2n(c1=O)CCN=2", "val": 91.9}

stdin: GET /values?readout=viability&item= O=C(CSc1nc2c(c(=O)n1-c1ccc(Cl)cc1)SCC2)N1CCOCC1
stdout: 97.6

stdin: GET /values?readout=viability&item= Cc1[nH]c2ccc(-c3n[nH]c(=S)n3C)cc2c1C
stdout: 98.9

stdin: GET /values?readout=viability&item= COc1ccc(NC(=O)C(c2ccccc2)N(C)C(=O)c2cnccn2)cc1 (stereo not drawn)
stdout: 99.2

stdin: GET /values?readout=viability&item= CC(CNCc1ccc2c(c1)OCO2)NCc1ccc2c(c1)OCO2 (stereo not drawn)
stdout: 75

stdin: GET /values?readout=viability&item= Cn1nnc2c(NCc3ccco3)nccc21
stdout: 96.6

stdin: GET /values?readout=viability&item= O=C(Nc1ccc(SC(F)F)cc1)C1=COCCO1
stdout: 93.8

stdin: GET /values?readout=viability&item= Cc1ccc(C)c(Nc2ncnc3nc[nH]c23)c1
stdout: 103

stdin: GET /values?readout=viability&item= COc1ccc(CN2CCN(C(=O)c3cccs3)CC2)cc1Br
stdout: 85.4

stdin: GET /values?readout=viability&item= CCC(C)N1C(=O)CCC1C(=O)NCc1ccc2c(c1)OCO2 (stereo not drawn)
stdout: 102

stdin: GET /values?readout=viability&item= CCOC(=O)COC(=O)c1ccc(O)cc1
stdout: 93

stdin: GET /values?readout=viability&item= Cc1nc2sc(C(c3ccco3)N3CCN(c4ccccc4)CC3)c(O)n2n1 (stereo not drawn)
stdout: 97.3

stdin: GET /values?readout=viability&item= O=C(NCCCc1ccccc1)c1ccncc1
stdout: 98.4

stdin: GET /values?readout=viability&item= Cc1ccnc(SCCn2c(N3CCCCC3)nc3c2c(=O)[nH]c(=O)n3C)n1
stdout: 101

====

Each entry below carries its reported differential viability (reversal).
- test_description: reversal of MRP1-mediated doxorubicin resistance, pilot screen, H69AR cells, doxorubicin co-treatment (AID 601)
- study_conditions: H69AR cells + 2 uM doxorubicin, CellTiter-Glo, 72 h; at 10 µM; hits give high values
Only the number, expressed in %, is required.

Would you please look over these solved cases?
{"compound": "Nc1sccc1C(=O)c1ccccc1", "val": -2.76}
{"compound": "O=C(CCn1c(=O)sc2ccccc21)Nc1nccs1", "val": 16.8}
{"compound": "COc1ccc(OC)c(C(=O)c2coc3ccc(O)c(CN4CCOCC4)c23)c1", "val": -4.02}
{"compound": "Cc1ccc(-n2ncc(C(=O)N3CCc4ccccc4C3)c2NC(=O)c2ccco2)cc1C", "val": -3.83}
{"compound": "COc1cccc(S(=O)(=O)Nc2cccnc2)c1", "val": 12.3}
{"compound": "O=C1CSC(c2cn(-c3ccccc3)nc2-c2ccccc2)N1Cc1ccco1 (stereo not drawn)", "val": 17.7}
{"compound": "Nc1nc(-n2cnnc2)nn1-c1ccccc1", "val": 11.4}

stdin: GET /values?readout=differential viability (reversal)&item= Cc1ccc(-c2nnn(CC(=O)N(Cc3ccco3)C(C(=O)NC(C)(C)C)c3cccs3)n2)o1 (stereo not drawn)
stdout: 6.13

====

- test_description: reversal of MRP1-mediated doxorubicin resistance, pilot screen, H69AR cells, doxorubicin co-treatment (AID 601)
- study_conditions: H69AR cells + 2 uM doxorubicin, CellTiter-Glo, 72 h; at 10 µM; hits give high values
measure_name: differential viability (reversal) (%)
Only the number, expressed in %, is required.

Would you please look over these solved cases?
{"compound": "CC1CN=C(N(C(=O)Nc2ccccc2)c2ccc(S(=O)(=O)N3CCOCC3)cc2)S1 (stereo not drawn)", "differential viability (reversal) / %": 16.8}
{"compound": "Cc1ccc2nsnc2c1S(=O)(=O)N(Cc1cc2cccc(C)c2[nH]c1=O)CC1CCCO1 (stereo not drawn)", "differential viability (reversal) / %": 0}
{"compound": "CCOC(=O)c1ccc(N2C(=O)CC(N(C)CCc3ccc(OC)c(OC)c3)C2=O)cc1 (stereo not drawn)", "differential viability (reversal) / %": 12.1}
{"compound": "COc1cccc(CNC(=O)C2CCN(C(=O)N(C)C)CC2)c1", "differential viability (reversal) / %": 0.06}
{"compound": "CCCCNC(=O)CN(C1CCCCC1)S(C)(=O)=O", "differential viability (reversal) / %": 11}
{"compound": "CCOC(=O)C1CCN(c2c(N(C)Cc3ccco3)c(=O)c2=O)CC1", "differential viability (reversal) / %": 15}
{"compound": "CCc1ccc(CNCc2cccnc2)cc1", "differential viability (reversal) / %": 6.96}
{"compound": "CCOC(=O)c1ccc(Oc2nc(SC)nc(N(C)C)n2)cc1", "differential viability (reversal) / %": 2.66}

stdin: GET /values?readout=differential viability (reversal)&item= CCCOC(=O)CSc1nc(N)c(C#N)c(CC)c1C#N
stdout: 0.73

stdin: GET /values?readout=differential viability (reversal)&item= C=Cn1nc(C)c2ccccc2c1=O
stdout: 4.88

stdin: GET /values?readout=differential viability (reversal)&item= COc1cc(C2c3c(oc4c(C)cc(C)cc4c3=O)C(=O)N2Cc2cccnc2)cc(OC)c1OC (stereo not drawn)
stdout: 6.48

stdin: GET /values?readout=differential viability (reversal)&item= CCOc1cc(C(=O)NCC2CCCO2)cc(OCC)c1OCC (stereo not drawn)
stdout: 10

stdin: GET /values?readout=differential viability (reversal)&item= Cn1c([N+](=O)[O-])cnc1COC(N)=O
stdout: 16.2

====

- test_description: HUVEC growth inhibition – cell-based, human, primary screen (AID 575);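 further: 100% = median of untreated cell wells with 0.1% DMSO on each plate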
- study_conditions: HUVEC proliferation, CellTiter-Glo luminescence, 72 h; at 10 µM; hits give low values
Please note: viability exactly at 90% is N. Only values below 90% get Y.

stdin: Please indicate whether the reported viability of O=C(N1CCN(Cc2ccccc2)CC1)C12CC3CC(CC(C3)C1)C2 is strictly below 90%.
stdout: Y

====

Each entry below carries its reported viability increase.
- test_description: viability gain of MRP-1-high H69AR cells under doxorubicin, pilot screen, MRP-1 activator project, CellTiter-Glo, duplicate (AID 807);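 further: compound pretreatment 18-22 h then 72 h combined with doxorubicin; 0% = doxorubicin alone and 100% = vehicle without doxorubicin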
- study_conditions: H69AR viability with doxorubicin, CellTiter-Glo luminescence; at 10 µM; hits give high values
Activity calls are given as the source filed them.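 The calls were made as follows: active = viability increase at or above a cutoff of the median across tested compounds plus 3 SD (cut at about 8.5% in these data, passing the limit was not always enough); inconclusive = some gains above the cutoff, reason not given; inactive = the rest.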

Would you please look over these solved cases?
{"compound": "C=C(C)Cn1c(CCCNC(=O)CCC)nc2ccccc21", "viability increase": "-0.37% (inactive)"}
{"compound": "COC(=O)c1cc(OC)c(OC)cc1N=CC1=C(O)CC(C)(C)CC1=O", "viability increase": "-0.98% (inactive)"}
{"compound": "NC(=O)C1(S(=O)(=O)c2ccccc2)CCCCC1", "viability increase": "-1.06% (inactive)"}

stdin: GET /values?readout=viability increase&item= Cc1cccc(N(CC(=O)Nc2c(C)n(C)n(-c3ccccc3)c2=O)S(C)(=O)=O)c1
stdout: -0.12% (inactive)

stdin: GET /values?readout=viability increase&item= COc1ccc(C2N(c3cccc(Cl)c3)C(=O)C3CCCN32)cc1 (centres undefined)
stdout: -2.85% (inactive)

stdin: GET /values?readout=viability increase&item= Cc1ccc(C)c(Nc2ncnc3nc[nH]c23)c1
stdout: -1.34% (inactive)

====

- test_description: inhibitors of the yeast RAM network, pilot screen, dse1pr::URA3 reporter, 5-FOA selection (AID 869);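 further: 0% = DMSO wells with no growth and 100% = 10 µM 1-NA-PP1 with full growth; RAM network block rescues cells from 5-FOA so hits raise OD615 growth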
- study_conditions: S. cerevisiae dse1pr::URA3 5-FOA growth, OD615, 2 d; at 10 µM; hits give high values; strain carries analog-sensitive mutant Cbk1 kinase
measure_name: inhibition (%)
Only the number, expressed in %, is required.

Would you please look over these solved cases?
{"molecule": "COc1cc(NC(=O)COc2ccc(-n3cnnn3)cc2)c(OC)cc1Cl", "inhibition / %": 2.55}
{"molecule": "CC(C)(C)c1ccc(OCC(=O)N2CCN(C=O)CC2)cc1", "inhibition / %": 1.25}
{"molecule": "CCC(C)NC(=O)C1CN(S(=O)(=O)c2ccccc2)CCN1S(=O)(=O)c1ccccc1 (stereo unspecified)", "inhibition / %": 0.14}

stdin: GET /values?readout=inhibition&item= O=C(CCCSc1nc2ccccc2s1)NCc1ccco1
stdout: 1.28

stdin: GET /values?readout=inhibition&item= COc1ccc(S(=O)(=O)Cc2ccc(C(=O)N3CCc4ccccc4C3)o2)cc1
stdout: 0.315

stdin: GET /values?readout=inhibition&item= CCC(C#CCN1CCCCC1)(CC)OCCC#N
stdout: 0.79

stdin: GET /values?readout=inhibition&item= CCCOc1ccc(C(=O)Nc2cc(-c3nn4c(C)nnc4s3)ccc2C)cc1
stdout: 1.7

stdin: GET /values?readout=inhibition&item= O=C(c1cnn2ccccc12)N(Cc1ccco1)C1CCCC1
stdout: 2.74

stdin: GET /values?readout=inhibition&item= CCC(C)C1C(C#N)=C(N)Oc2n[nH]c(C)c21 (stereo unspecified)
stdout: 0.79

stdin: GET /values?readout=inhibition&item= COCCCNC(=O)Cn1nnc(-c2ccc(NC(=O)c3ccc(F)cc3)cc2)n1
stdout: 0.705

stdin: GET /values?readout=inhibition&item= CCCCn1c(C(C)NC(=O)CCC)nc2ccccc21 (stereo unspecified)
stdout: 0.88
